# measurement.target: E3 ubiquitin-protein ligase TRIM33 (Homo sapiens, UniProt Q9UPN9)
# Sequence (Q9UPN9 whole entry): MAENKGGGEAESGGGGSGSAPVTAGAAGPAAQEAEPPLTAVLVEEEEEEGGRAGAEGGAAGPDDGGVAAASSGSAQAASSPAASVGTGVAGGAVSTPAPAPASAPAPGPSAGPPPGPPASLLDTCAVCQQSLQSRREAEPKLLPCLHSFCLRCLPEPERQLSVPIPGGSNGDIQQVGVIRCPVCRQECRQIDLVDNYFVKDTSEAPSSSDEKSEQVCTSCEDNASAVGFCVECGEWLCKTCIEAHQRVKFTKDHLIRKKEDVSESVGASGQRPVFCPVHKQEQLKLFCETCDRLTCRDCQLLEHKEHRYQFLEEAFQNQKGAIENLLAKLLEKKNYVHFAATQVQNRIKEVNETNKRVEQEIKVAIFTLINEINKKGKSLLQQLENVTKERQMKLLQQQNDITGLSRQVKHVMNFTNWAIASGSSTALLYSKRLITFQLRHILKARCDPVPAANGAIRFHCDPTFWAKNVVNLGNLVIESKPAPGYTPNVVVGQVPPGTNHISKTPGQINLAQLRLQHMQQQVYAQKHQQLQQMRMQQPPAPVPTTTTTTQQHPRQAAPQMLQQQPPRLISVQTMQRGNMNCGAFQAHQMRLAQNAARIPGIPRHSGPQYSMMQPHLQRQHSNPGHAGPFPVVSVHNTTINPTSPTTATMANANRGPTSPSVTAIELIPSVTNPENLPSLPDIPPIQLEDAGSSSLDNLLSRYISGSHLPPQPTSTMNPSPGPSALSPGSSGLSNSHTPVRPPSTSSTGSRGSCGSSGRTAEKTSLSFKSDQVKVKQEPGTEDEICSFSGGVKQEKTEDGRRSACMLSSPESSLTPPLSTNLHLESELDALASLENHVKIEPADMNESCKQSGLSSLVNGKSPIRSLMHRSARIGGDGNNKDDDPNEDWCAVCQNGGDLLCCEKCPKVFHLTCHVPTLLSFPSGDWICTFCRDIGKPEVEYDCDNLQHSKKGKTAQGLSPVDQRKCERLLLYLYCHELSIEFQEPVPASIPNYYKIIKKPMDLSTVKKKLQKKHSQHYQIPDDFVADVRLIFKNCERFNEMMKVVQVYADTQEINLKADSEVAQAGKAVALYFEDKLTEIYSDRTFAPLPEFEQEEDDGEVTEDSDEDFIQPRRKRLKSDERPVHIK
# assay.explanation: Inhibition of recombinant TRIM33 PHD bromodomain (unknown origin) using biotinylated H3 peptide (H3K9me3K18ac) by AlphaScreen assay
pIC50: −log10 of the molar value.
experimental.endpoint: pIC50

Guide cases for pIC50, answers given:
{"columns": ["given.smiles", "pIC50"],
 "data": [
  ["COC(=O)c1ccc2nc(-c3c[nH]c(C)n3)c(NCCN3CCOCC3)n2c1", 4.15],
  ["COCCNc1c(-c2nc[nH]c2C)nc2ccccn12", 4.79],
  ["CCCOc1ccn2c(C(C)=O)cc(-c3nc4ccccn4c3NCCc3ccc(OC)c(OC)c3)c2c1", 4.66]
]}

(A) Cc1[nH]cnc1-c1nc2ccccn2c1NCc1ccc(C#N)cc1
(B) Cn1cccc1C=O
Kindly identify the item with the lower pIC50 figure among these two: A and B Pick one and reply with its label.
A
(A: 4.78, B: 6.52)

(a) COc1ccc(CCNc2c(-c3nc[nH]c3C)nc3ccccn23)cc1OC
(b) CCCOc1ccn2c(C(C)=O)cc(-c3nc4cnccn4c3Nc3ccc(OC)cc3)c2c1
Of the two listed items, which has the higher pIC50? First: a Second: b Pick one and reply with its label.
a
(a: 5.86, b: 4.41)

(A) COc1ccc(C=O)c(O)c1
(B) Cc1nc(-c2nc3ccccn3c2NCCN2CCOCC2)c[nH]1
(C) COC(=O)c1ccc2nc(-c3ccc4nccn4c3)c(NCc3ccc(C#N)cc3)n2c1
(D) CCCOc1ccn2c(C(C)=O)cc(-c3nc4ccccn4c3Nc3ccc(OC)cc3)c2c1
Sequence the entries by pIC50, beginning with the highest number. Dear reader, please state the labels in the requested order.
A, D, B, C
(A: 6.52, D: 5.02, B: 4.56, C: 3.90)

(1) CCCOc1ccn2c(C(C)=O)cc(-c3nc4cnccn4c3NCCc3ccc(OC)c(OC)c3)c2c1
(2) Cc1cccc2c(C=O)c[nH]c12
Of the two listed items, which has the higher pIC50? First: 1 Second: 2 Pick one and reply with its label.
2

(I) Cc1ncc(CO)c(C=O)c1O
(II) COC(=O)c1ccc2nc(-c3c[nH]c(C)n3)c(Nc3ccc(OC)cc3)n2c1
Of the two listed items, which has the higher pIC50? First: I Second: II Pick one and reply with its label.
I
(I: 6.55, II: 5.07)

(1) CCCOc1ccn2c(C(C)=O)cc(-c3nc4ccc(C(=O)OC)cn4c3NCc3ccc(C#N)cc3)c2c1
(2) Cc1nc(-c2nc3cnccn3c2NC2CCCCC2)c[nH]1
(3) COC(=O)c1ccc2nc(-c3c[nH]c(C)n3)c(NCCc3ccc(OC)c(OC)c3)n2c1
Sequence the entries by pIC50, beginning with the highest number. Dear reader, please state the labels in the requested order.
3, 1, 2
(3: 5.14, 1: 4.19, 2: 3.38)

(A) CCCOc1ccn2c(C(C)=O)cc(-c3nc4ccccn4c3NC3CCCCC3)c2c1
(B) Cc1[nH]cnc1-c1nc2ccc(Br)cn2c1NC1CCCCC1
(C) COC(=O)c1ccc2nc(-c3c[nH]c(C)n3)c(NC3CCCCC3)n2c1
Order the records, beginning with the lowest pIC50 and ending with the highest. Dear reader, please state the labels in the requested order.
C, A, B
(C: 4.72, A: 5.06, B: 5.99)
